Cited source for all entries: the MegaScale stability set (Tsuboyama et al. 2023)

B1: EHEE_rd2_1257 (parent)
chain: EEERTFTNEEEARKAKKEAEKRGLRVTVTKDGTTWRVRIG

variants of: B1; test: folding stability dG (cDNA display proteolysis); higher = more stable; conditions: PBS, room temperature
QUANTITY MEASURED: folding stability dG (kcal/mol)
Quick note: give the figure in kcal/mol, leave out the unit.

Worked set:
| MUTATION SPEC | folding stability dG, kcal/mol |
| --- | --- |
| R38Q | 1.74 |
| K30V | 1.83 |
| K16V | 3 |
| K14I | 2 |
| L24W | 1.61 |
| T29F | 2.32 |

(Q) Query (variant): K21W ; field requested: folding stability dG
(A) 1.71
